Target: Anti-CD28 Fab (SEQ ID NOs: 696, 697)
Sequence (VH, as listed by the source, chain 1 of 2): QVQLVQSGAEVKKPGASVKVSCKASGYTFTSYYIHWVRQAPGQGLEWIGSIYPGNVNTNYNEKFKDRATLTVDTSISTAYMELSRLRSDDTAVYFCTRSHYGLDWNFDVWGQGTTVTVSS
Sequence (VL, as listed by the source, chain 2 of 2): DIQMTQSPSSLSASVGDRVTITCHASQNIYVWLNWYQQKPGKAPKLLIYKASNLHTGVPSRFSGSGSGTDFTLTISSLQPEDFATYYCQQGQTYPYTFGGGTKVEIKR
Assay: phage binding ELISA; biotinylated anti-CD28 Fab on neutravidin plate, clonal phage supernatant, anti-M13 HRP detection
In this section, each of the binders is paired with its reported Anti-CD28 Fab signal (phage binding ELISA).
measuredAttribute: Anti-CD28 Fab signal (phage binding ELISA)

- YCEGHSQEYMQKCL [Phage-794]: 1.84
- YCDGHSLQYLGKCL [Phage-793]: 1.84
- YCAGHSSEYMWKCL [Phage-790]: 1.85
- YCDGHMPEYLAKCL [Phage-788]: 1.86
- YCAGHAPEYMFKCM [Phage-797]: 1.83
- YCEGHAAEYMSKCL [Phage-789]: 1.86
- YCEGHLQIYMSKCL [Phage-796]: 1.84
- YCEGHLPEYMRKCL [Phage-799]: 1.83
- YCEGHRPEYMAKCL [Phage-798]: 1.83
